Provide the reported melting point of each item.

INSERT INTO assay_data (compound, readout_label, assay_result) VALUES
  ('CCOC(=O)C(CCCCNC(=O)OC(C)(C)C)NC(=O)C=CC(=O)c1ccccc1 (stereo unspecified)', 'melting point', '91 to 94 °C'),
  ('Cc1ccc(S(=O)(=O)OCC2CC(OS(=O)(=O)c3ccc(C)cc3)CN2S(=O)(=O)c2ccc(C)cc2)cc1 (stereo unspecified)', 'melting point', '134 to 135 °C'),
  ('Nc1nc(N)c2ncn(C3OC(COCc4ccccc4)C(OCc4ccccc4)C3OCc3ccccc3)c2n1 (stereo unspecified)', 'melting point', '158 to 159 °C');

Working through the 3 compounds below one at a time, give melting point for each.
1. OCC1OC(n2cnc3c(Nc4ccc(Cl)cc4)ccnc32)C(O)C1O (stereo unspecified)
2. CS(=O)(=O)C(=C1CN(C(c2ccccc2)c2ccccc2)C1)c1cccc(C(N)=O)c1
3. CCOC(=O)C1n2c3ccccc3c3c4c(c5c6ccccc6n(c5c32)CS1(=O)=O)C(=O)NC4=O (stereo unspecified)

OUTPUT:
["215 °C", "140 °C", "298 to 300 °C"]

Fill in melting point for each of the 4 compounds listed.
1. COc1ccc2c(c1)CN(C(=O)N(C)C)N=C2Cc1c(Cl)cncc1Cl
2. Cc1ccc(C)c2c1CN(NC(=O)OC(C)(C)C)C2
3. O=C(O)COc1ccc2c(-c3ccc(Cl)c(Cl)c3)noc2c1Cl
4. C=CC1CN(c2ncc(C(=O)N(CCCCC)c3cccc(C(F)(F)F)c3)c(N)n2)C(=O)N1 (stereo unspecified)

OUTPUT:
160 to 162 °C
148 to 151 °C
222 to 224 °C
135 to 137 °C
